src = ChEMBL document CHEMBL1135560

- Test system: Plasmodium falciparum
- Assay procedure: Growth inhibition of Plasmodium falciparum at 10 nM
- Type: functional
Each entry below carries its reported inhibition at 0.01 µM.
Your answer should be a plain number; it is taken to be in %.

Worked cases, answers included:
O=S(=O)(/C=C/c1ccccc1)NCCCN1CCN(CCCNc2ccnc3cc(Cl)ccc23)CC1 = 0
O=S(=O)(NCCCN1CCN(CCCNc2ccnc3cc(Cl)ccc23)CC1)c1ccccc1F = 11
COc1ccc(Br)cc1S(=O)(=O)NCCCN1CCN(CCCNc2ccnc3cc(Cl)ccc23)CC1 = 64

Measured inhibition at 0.01 µM, O=[N+]([O-])c1cccc(S(=O)(=O)NCCCN2CCN(CCCNc3ccnc4cc(Cl)ccc34)CC2)c1 : 48

Measured inhibition at 0.01 µM, O=S(=O)(NCCCN1CCN(CCCNc2ccnc3cc(Cl)ccc23)CC1)c1cc(C(F)(F)F)ccc1Cl : 60

* * *

- Test system: Plasmodium falciparum
- Assay procedure: Growth inhibition of Plasmodium falciparum at 10 nM
- Assay type: functional
Test readout: inhibition at 0.01 µM (%)
Your answer should be a plain number; it is taken to be in %.

CC(=O)c1cccc(S(=O)(=O)NCCCN2CCN(CCCNc3ccnc4cc(Cl)ccc34)CC2)c1 = 22
O=S(=O)(Cc1ccccc1)NCCCN1CCN(CCCNc2ccnc3cc(Cl)ccc23)CC1 = 4
O=S(=O)(NCCCN1CCN(CCCNc2ccnc3cc(Cl)ccc23)CC1)c1ccc(Cl)cc1 = 26
CC(C)S(=O)(=O)NCCCN1CCN(CCCNc2ccnc3cc(Cl)ccc23)CC1 = 25
CCS(=O)(=O)NCCCN1CCN(CCCNc2ccnc3cc(Cl)ccc23)CC1 = 1

Measured inhibition at 0.01 µM, Cc1ccc(S(=O)(=O)NCCCN2CCN(CCCNc3ccnc4cc(Cl)ccc34)CC2)cc1 : 54

Measured inhibition at 0.01 µM, O=S(=O)(NCCCN1CCN(CCCNc2ccnc3cc(Cl)ccc23)CC1)c1ccc(F)cc1 : 20

Measured inhibition at 0.01 µM, Cc1ccc([N+](=O)[O-])cc1S(=O)(=O)NCCCN1CCN(CCCNc2ccnc3cc(Cl)ccc23)CC1 : 56

Measured inhibition at 0.01 µM, O=[N+]([O-])c1ccccc1S(=O)(=O)NCCCN1CCN(CCCNc2ccnc3cc(Cl)ccc23)CC1 : 0
